Biological target: T1, interleukin-23 receptor (IL-23R), Q5VWK5
T1 chain: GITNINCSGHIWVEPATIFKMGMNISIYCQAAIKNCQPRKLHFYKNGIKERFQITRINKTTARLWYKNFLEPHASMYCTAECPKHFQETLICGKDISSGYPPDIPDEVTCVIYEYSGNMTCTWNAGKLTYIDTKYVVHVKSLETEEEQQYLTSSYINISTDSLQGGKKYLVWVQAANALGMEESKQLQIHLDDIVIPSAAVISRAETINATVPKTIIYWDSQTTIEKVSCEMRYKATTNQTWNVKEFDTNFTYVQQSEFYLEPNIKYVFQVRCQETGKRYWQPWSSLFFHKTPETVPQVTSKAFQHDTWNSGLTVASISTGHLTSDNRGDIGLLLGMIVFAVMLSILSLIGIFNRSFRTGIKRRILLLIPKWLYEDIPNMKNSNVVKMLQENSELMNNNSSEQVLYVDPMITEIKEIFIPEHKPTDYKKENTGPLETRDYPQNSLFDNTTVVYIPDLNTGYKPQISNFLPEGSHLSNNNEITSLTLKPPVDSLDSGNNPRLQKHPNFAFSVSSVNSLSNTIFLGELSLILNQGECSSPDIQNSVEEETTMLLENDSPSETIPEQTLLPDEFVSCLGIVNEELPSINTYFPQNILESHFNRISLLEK
Assay: cell-based or functional assay
Starred links: 1 amine or outer side, 2 acyl side, 3 side chain; linkers in the order of their positions; H or OH if unused. Positions of bridges follow the written chain, without caps; N, C: chain ends. Non-standard residues stand in square brackets, D forms with d. No end group written: not given here. X1 = 3‑(7-(3-acetamidophenyl)-1H-indol-3-yl)‑2‑aminopropanoic acid, CC(=O)Nc1cccc(-c2cccc3c(CC(N[*:1])C(=O)[*:2])c[nH]c23)c1; X7 = 2‑amino‑3‑(5-methylpyridin-3-yl)propanoic acid, Cc1cncc(CC(N[*:1])C(=O)[*:2])c1; Trp(7-Me) = Cc1cccc2c(C[C@H](N)C(=O)O)c[nH]c12; dLys(Me3) = C[N+](C)(C)CCCC[C@@H](N)C(=O)O; 3Pal = N[C@@H](Cc1cccnc1)C(=O)O; Pen = CC(C)(S)[C@H](N)C(=O)O; αMeC = C[C@](N)(CS)C(=O)O; Thp = NC1(C(=O)O)CCOCC1; Sar = CNCC(=O)O
metric: IL23R Reporter Assay IC50

See these solved cases before continuing.
[Pen]NT[X1]K[Pen][2‑amino‑3‑(4-(2-aminoethoxy)phenyl)propanoic acid][2‑amino‑3‑(6-hydroxynaphthalen-2-yl)propanoic acid][Thp]K(Ac)N[3Pal][Sar] (disulfide 1-6 (inferred); ends not checked; also: Lys5: lipidated lysine, lipid not given here) [SEQ ID NO: 152]    > 100 nM
[dLys(Me3)]CNT[Trp(7-Me)]K(Ac)[αMeC][2‑amino‑3‑(4-(2-aminoethoxy)phenyl)propanoic acid][2‑amino‑3‑(6-hydroxynaphthalen-2-yl)propanoic acid][Thp]EN[3Pal][Sar] (ends and bridges not checked) [SEQ ID NO: 8]    < 10 nM

Annotate the binder R[Pen]NT[X1]K(Ac)[Pen][5‑(4-(2-amino-2-carboxyethyl)phenoxy)‑N,N,N‑trimethylpentan‑1‑aminium][2‑amino‑3‑(6-hydroxynaphthalen-2-yl)propanoic acid][Thp]EN[X7][Sar] (ends and bridges not checked) [SEQ ID NO: 20] with its measured IL23R Reporter Assay IC50.
< 10 nM

meta.source: patent US20240279281A1
